protein stability index values, listed per item
B1: TRAF3IP2 (parent)
chain: PRPPSNPPARGTLKTSNLPEELRK

Variants of: B1
Assay: protein stability index of a GFP-peptide fusion (GPS, HEK-293T) (PSI 1-6); higher = more stable;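 further: lentivirally expressed fusions sorted by FACS into six bins by GFP to DsRed ratio, PSI derived from sequencing read proportions per bin multiplied by bin number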
Details: c terminus: a fixed tail appended
The reply should be a number, written without any unit.

L22M : 4.75
K24F : 4.33
N17Y : 4.77
N6D : 4.8
L13F : 4.37
A9C : 4.31
K24P : 3.9
P4F : 4.25
L22W : 4.25
L18Q : 5.08

I have this variant here, `R23P` , and I need its recorded protein stability index. 5.21

Then what about the variant `T12E` ? 4.54

Then what about the variant `E20D` ? 4.81

Then what about the variant `P19F` ? 4.28

Then what about the variant `E20R` ? 4.48
